Target: Heat shock factor protein 1 (Mus musculus)
Sequence (P38532 whole entry): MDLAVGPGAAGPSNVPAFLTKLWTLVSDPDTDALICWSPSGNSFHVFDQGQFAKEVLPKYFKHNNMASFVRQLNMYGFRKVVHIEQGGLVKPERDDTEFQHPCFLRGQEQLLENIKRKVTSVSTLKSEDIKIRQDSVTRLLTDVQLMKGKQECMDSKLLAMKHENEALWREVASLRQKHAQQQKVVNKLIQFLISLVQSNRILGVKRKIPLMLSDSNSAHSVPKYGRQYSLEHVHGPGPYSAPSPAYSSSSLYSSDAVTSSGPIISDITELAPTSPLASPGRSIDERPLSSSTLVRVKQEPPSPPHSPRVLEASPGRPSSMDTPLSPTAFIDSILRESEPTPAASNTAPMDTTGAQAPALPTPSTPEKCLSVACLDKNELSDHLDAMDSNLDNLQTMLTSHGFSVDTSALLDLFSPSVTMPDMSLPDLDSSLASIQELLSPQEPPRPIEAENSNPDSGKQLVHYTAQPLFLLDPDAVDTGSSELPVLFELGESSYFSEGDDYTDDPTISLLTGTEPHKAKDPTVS
Assay: inhibition of MG132-induced HSE-luciferase signal, confirmation, cell-based, NIH3T3, luminescence, dose retest (AID 2382);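 note: NIH3T3 fibroblasts with HSF1-driven luciferase reporter stressed by proteasome inhibitor MG132; luminescence from HSF1-driven luciferase expression after 8 hours of MG132 stress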
Type: functional
The source made the active and inactive calls. Cut-off read from the data, not from the text of the source: actives have a measured EC50 and inactives only a lower limit.
observable: EC50

Look at this molecule and give its reported EC50. COc1ccc(S(=O)(=O)N2CCC(NC(=O)C(Cc3cccc(OC)c3OC)NC(C)=O)CC2)cc1 (stereo not drawn)
> 195 µM (not active)

Look at this molecule and give its reported EC50. O=[N+]([O-])c1nn(-c2ccc3c(c2)OCCO3)[n+]([O-])c1Nc1ccccc1
< 0.16 µM (active)

Look at this molecule and give its reported EC50. CCC1COCCS(=O)(=O)N1Cc1ccccc1C (stereo not drawn)
> 195 µM (not active)
